Below, pIC50 values reported for UniProtKB Q9NSY1 across several publications.
Sequence (Q9NSY1 whole entry): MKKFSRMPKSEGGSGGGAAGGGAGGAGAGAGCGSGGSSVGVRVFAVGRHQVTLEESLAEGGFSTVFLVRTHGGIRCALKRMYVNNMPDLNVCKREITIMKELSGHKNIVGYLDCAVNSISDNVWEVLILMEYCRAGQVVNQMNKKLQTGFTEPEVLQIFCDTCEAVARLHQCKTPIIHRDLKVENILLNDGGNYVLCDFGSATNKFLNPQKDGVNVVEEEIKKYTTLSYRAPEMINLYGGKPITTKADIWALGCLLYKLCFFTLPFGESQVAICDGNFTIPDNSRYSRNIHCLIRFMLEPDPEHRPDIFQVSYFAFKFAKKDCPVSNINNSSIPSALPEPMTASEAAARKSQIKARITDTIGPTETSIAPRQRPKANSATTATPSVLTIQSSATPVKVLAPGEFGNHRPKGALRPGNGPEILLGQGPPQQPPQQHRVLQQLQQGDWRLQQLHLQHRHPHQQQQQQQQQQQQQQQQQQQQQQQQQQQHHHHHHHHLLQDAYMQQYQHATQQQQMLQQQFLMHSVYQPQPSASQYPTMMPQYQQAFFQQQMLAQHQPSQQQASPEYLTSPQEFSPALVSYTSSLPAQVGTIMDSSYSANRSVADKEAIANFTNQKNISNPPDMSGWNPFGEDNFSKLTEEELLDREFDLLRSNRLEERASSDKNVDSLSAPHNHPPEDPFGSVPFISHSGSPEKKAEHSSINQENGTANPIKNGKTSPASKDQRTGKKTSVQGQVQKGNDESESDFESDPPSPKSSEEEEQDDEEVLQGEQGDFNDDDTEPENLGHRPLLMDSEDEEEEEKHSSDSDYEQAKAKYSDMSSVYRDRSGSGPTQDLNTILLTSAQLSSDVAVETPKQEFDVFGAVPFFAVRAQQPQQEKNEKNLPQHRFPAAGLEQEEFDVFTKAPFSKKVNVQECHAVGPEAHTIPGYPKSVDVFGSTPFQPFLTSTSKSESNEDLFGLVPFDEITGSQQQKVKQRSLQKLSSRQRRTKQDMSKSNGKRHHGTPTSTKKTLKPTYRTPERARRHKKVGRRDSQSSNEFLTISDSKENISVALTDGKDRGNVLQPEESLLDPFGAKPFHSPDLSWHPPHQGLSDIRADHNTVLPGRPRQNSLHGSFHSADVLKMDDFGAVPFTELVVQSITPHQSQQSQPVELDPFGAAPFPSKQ
pIC50: −log10 of the molar value.
Criterion: pIC50 meeting or surpassing 7. Met: 1. Not met: -1.

Study these solved cases before continuing.
>  <Smi>
CC(C)(C)NS(=O)(=O)c1cncc(-c2ccn3nc(N)nc3c2)c1

>  <System Tested>
UniProtKB Q9NSY1

>  <Discrete Label>
-1

$$$$
>  <Smi>
COC(=O)Nc1cc(-c2cnc(OC[C@@](C)(N)CC(C)C)c(C)c2)ccn1

>  <System Tested>
UniProtKB Q9NSY1

>  <Discrete Label>
1

$$$$
>  <Smi>
CC(C)C[C@](C)(N)COc1ccc(-c2ccnc(C(F)F)c2)cc1C(F)F

>  <System Tested>
UniProtKB Q9NSY1

>  <Discrete Label>
-1

$$$$
>  <Smi>
CC(C)C[C@](C)(N)COc1ccc(-c2ccnc(C(F)F)c2)nc1C(F)F

>  <System Tested>
UniProtKB Q9NSY1

>  <Discrete Label>
-1

$$$$
>  <Smi>
COC(=O)Nc1cc(-c2ccc(OC[C@@](C)(N)CC(C)C)c(C(F)F)n2)ccn1

>  <System Tested>
UniProtKB Q9NSY1

>  <Discrete Label>
1

$$$$

Now take the following molecule into account.
For this molecule, is measured pIC50 7 or higher? CC(C)C[C@](C)(N)COc1cnc(-c2ccnc(Cl)c2)cc1C(F)F
-1
